- measurementTarget: Interleukin-23 receptor (Homo sapiens, UniProt Q5VWK5)
- testDetails: Inhibition of interleukin-23 binding to human interleukin-23 receptor incubated for 2 hrs by competitive binding ELISA
recordedMetric: IC50

CC(=O)N[C@@H](CS)C(=O)N[C@@H](C)C(=O)N[C@@H](CC(=O)O)C(=O)N[C@@H](Cc1c[nH]c2ccccc12)C(=O)N[C@H](C(=O)N[C@@H](CS)C(=O)N[C@@H](Cc1ccc(O)cc1)C(=O)NC1(C(=O)N[C@@H](Cc2cnc[nH]2)C(=O)N[C@H](C(=O)N[C@@H](Cc2ccccc2)C(=O)NCC(=O)NCCOCC(=O)N[C@H](CCCCN)C(N)=O)[C@@H](C)O)Cc2ccccc2C1)C(C)C; > 1000 nM

Consider the additional compound presented here.
Could you share what IC50 was measured for "CC(=O)NCCOc1ccc(C[C@H](NC(=O)[C@@H](NC(=O)[C@H](CCC(N)=O)NC(=O)[C@H](Cc2c[nH]c3ccccc23)NC(=O)[C@@H](NC(=O)[C@H](CCC(N)=O)NC(=O)[C@@H](NC(C)=O)C(C)(C)S)[C@@H](C)O)C(C)(C)S)C(=O)N[C@@H](Cc2ccc3ccccc3c2)C(=O)NC(C)(C)C(=O)N[C@@H](CCC(=O)O)C(=O)N[C@@H](CC(N)=O)C(=O)N[C@@H](CC(N)=O)C(N)=O)cc1" , tested on Interleukin-23 receptor (Homo sapiens, UniProt Q5VWK5)? 10 to 25 nM

====

- testDetails: Half life in simulated intestinal fluid at 20 uM by LC-MS/MS analysis
- Assay type: ADME
*1 amine or outer side, *2 acyl side, *3 side chain or, on linkers, in order; H or OH if unused. Where a SMILES comes first, the peptide text is derived from it. Bridges are numbered along the chain shown (N, C = ends). [ ]: non-standard residue; d: D form. Abu(4-yl) = O=C([C@H](CC[*:3])N[*:1])[*:2]; Pen = CC(C)(S)[C@H](N)C(=O)O; hLeu = CC(C)CC[C@H](N)C(=O)O
Could you please report measured half-life at 20 µM for the items listed next?

CC(=O)NCCCC[C@H](NC(=O)[C@](C)(CCCCN)NC(=O)[C@H](Cc1ccc2ccccc2c1)NC(=O)[C@H](Cc1ccc(Cl)c(Cl)c1)NC(=O)[C@@H]1CSCC[C@H](NC(C)=O)C(=O)N[C@@H](CCC(N)=O)C(=O)N[C@@H]([C@@H](C)O)C(=O)N[C@@H](Cc2c[nH]c3ccccc23)C(=O)N[C@@H](CCC(N)=O)C(=O)N1)C(=O)N[C@@H](CC(N)=O)C(=O)NCC(N)=O; 2 to 3 h

Consider the additional molecule presented here.
Given CC(=O)N[C@H]1CCSC(C)(C)[C@@H](C(=O)N[C@@H](Cc2ccc(O)cc2)C(=O)N[C@@H](Cc2c[nH]c3ccccc23)C(=O)N[C@@H](CCC(C)C)C(=O)N[C@@H](CCC(=O)O)C(=O)N[C@@H](CC(N)=O)C(=O)NCC(N)=O)NC(=O)[C@H](CCC(N)=O)NC(=O)[C@H](Cc2c[nH]c3ccccc23)NC(=O)[C@H]([C@@H](C)O)NC(=O)[C@H](CCC(N)=O)NC1=O (Ac-[Abu(4-yl)]QTWQ[Pen]YW[hLeu]ENG-NH2; thioether 1-6) , state its recorded half-life at 20 µM. < 1 h

====

- testDetails: Inhibition of interleukin-23 binding to rat interleukin-23 receptor incubated for 2 hrs by competitive binding ELISA
pIC50: −log10 of the molar value.
Could you please report measured pIC50 for the items listed next?

Consider the worked cases shown below.
CC(=O)N[C@H](CCC(=O)O)C(=O)N[C@H]1CCSC[C@@H](C(=O)N[C@@H](Cc2ccc(OCCN)cc2)C(=O)N[C@@H](Cc2ccc3ccccc3c2)C(=O)N[C@@](C)(CCCCN)C(=O)N[C@@H](CCC(=O)O)C(=O)N[C@@H](CC(N)=O)C(=O)N[C@@H](CC(N)=O)C(N)=O)NC(=O)[C@H](CCC(N)=O)NC(=O)[C@H](Cc2c[nH]c3ccccc23)NC(=O)[C@H]([C@@H](C)O)NC(=O)[C@H](CCC(N)=O)NC1=O; > 8.00
CC(=O)N[C@@H](CS)C(=O)N[C@@H](CCC(N)=O)C(=O)N[C@H](C(=O)N[C@@H](Cc1c[nH]c2ccccc12)C(=O)N[C@@H](CCC(N)=O)C(=O)N[C@@H](CS)C(=O)N[C@@H](Cc1ccc(O)cc1)C(=O)N[C@@H](Cc1c[nH]c2ccccc12)C(=O)N[C@@H](CCCNC(N)=O)C(=O)N[C@@H](CN)C(=O)N[C@@H](Cc1ccccc1)C(=O)NCC(=O)NCCOCC(=O)N[C@H](CCCCN)C(N)=O)[C@@H](C)O; 5.00 to 6.00

Given "CC(=O)N[C@@H](CS)C(=O)N[C@@H](CCC(N)=O)C(=O)N[C@H](C(=O)N[C@@H](Cc1c[nH]c2ccccc12)C(=O)N[C@@H](CCC(N)=O)C(=O)N[C@@H](CS)C(=O)N[C@@H](Cc1ccc(O)cc1)C(=O)N[C@@H](Cc1ccc(-c2ccccc2)cc1)C(=O)N[C@@H](CCC(C)C)C(=O)N[C@@H](CCC(=O)O)C(=O)N[C@@H](CC(N)=O)C(=O)NCC(N)=O)[C@@H](C)O" , state its recorded pIC50. 7.29

====

- measurementTarget: Interleukin-23 receptor (Homo sapiens)
- Sequence (Q5VWK5 whole entry): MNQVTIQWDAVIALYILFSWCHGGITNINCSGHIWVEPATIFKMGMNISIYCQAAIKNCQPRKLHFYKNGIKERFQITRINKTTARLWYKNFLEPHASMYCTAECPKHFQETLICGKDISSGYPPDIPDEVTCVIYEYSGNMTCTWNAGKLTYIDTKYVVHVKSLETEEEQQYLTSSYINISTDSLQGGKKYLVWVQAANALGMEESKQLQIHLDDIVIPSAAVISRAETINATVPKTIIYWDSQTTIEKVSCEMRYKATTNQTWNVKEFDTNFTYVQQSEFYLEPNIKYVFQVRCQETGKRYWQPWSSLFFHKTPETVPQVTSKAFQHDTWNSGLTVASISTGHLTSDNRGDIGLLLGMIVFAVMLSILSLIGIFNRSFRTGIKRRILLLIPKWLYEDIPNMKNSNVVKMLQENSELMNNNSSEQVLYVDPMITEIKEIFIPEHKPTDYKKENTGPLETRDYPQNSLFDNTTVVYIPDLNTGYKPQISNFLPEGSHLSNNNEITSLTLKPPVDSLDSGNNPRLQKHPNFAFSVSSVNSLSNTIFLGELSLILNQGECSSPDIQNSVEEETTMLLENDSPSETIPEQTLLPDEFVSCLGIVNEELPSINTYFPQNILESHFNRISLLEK
- testDetails: Inhibition of interleukin-23 binding to human interleukin-23 receptor incubated for 2 hrs by competitive binding ELISA
recordedMetric: IC50 (µM)
Numbers only, in µM.

CC(=O)N[C@@H](CS)C(=O)N[C@@H](CCC(N)=O)C(=O)N[C@H](C(=O)N[C@@H](Cc1c[nH]c2ccccc12)C(=O)N[C@@H](CCC(N)=O)C(=O)N[C@@H](CS)C(=O)N[C@@H](Cc1ccc(O)cc1)C(=O)N[C@@](C)(Cc1c[nH]c2ccccc12)C(=O)N[C@@H](CCCNC(N)=O)C(=O)N[C@@H](CCC(C)C)C(=O)N[C@@H](CC(N)=O)C(=O)NCC(=O)NCCC(=O)N[C@H](CCCCN)C(N)=O)[C@@H](C)O; 6

Given "CC(=O)N[C@@H](CS)C(=O)N[C@@H](CCC(N)=O)C(=O)N[C@H](C(=O)N[C@@H](Cc1c[nH]c2ccccc12)C(=O)N[C@@H](CCC(N)=O)C(=O)N[C@@H](CS)C(=O)N[C@@H](CCc1ccc(O)cc1)C(=O)N[C@@H](Cc1c[nH]c2ccccc12)C(=O)N[C@@H](CCC(C)C)C(=O)N[C@@H](CCC(=O)O)C(=O)N[C@@H](CC(N)=O)C(=O)NCC(N)=O)[C@@H](C)O" , state its recorded IC50. 6

====

- measurementTarget: Interleukin-23 receptor (Homo sapiens)
- Sequence (Q5VWK5 whole entry): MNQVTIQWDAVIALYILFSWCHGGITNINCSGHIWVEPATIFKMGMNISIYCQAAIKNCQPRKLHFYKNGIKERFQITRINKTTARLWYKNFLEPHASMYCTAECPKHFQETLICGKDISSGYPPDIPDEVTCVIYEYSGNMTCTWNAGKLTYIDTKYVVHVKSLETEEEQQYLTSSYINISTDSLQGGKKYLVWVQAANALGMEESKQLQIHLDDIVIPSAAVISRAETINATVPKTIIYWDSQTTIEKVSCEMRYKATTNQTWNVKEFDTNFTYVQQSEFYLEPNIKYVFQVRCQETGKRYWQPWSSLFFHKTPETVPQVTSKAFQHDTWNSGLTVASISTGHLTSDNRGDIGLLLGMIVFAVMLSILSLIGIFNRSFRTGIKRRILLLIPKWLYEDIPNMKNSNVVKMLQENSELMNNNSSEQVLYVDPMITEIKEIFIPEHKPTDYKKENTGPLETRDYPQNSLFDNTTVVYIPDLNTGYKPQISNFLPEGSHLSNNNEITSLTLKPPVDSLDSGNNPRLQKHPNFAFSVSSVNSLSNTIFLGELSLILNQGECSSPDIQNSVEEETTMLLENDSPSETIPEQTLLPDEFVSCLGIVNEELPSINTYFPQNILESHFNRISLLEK
- testDetails: Inhibition of interleukin-23 binding to human interleukin-23 receptor incubated for 2 hrs by competitive binding ELISA
Could you please report measured IC50 for the items listed next?

Consider the worked cases shown below.
CC(=O)N[C@H]1CCSC[C@@H](C(=O)N[C@@H](Cc2ccc(OCCN)cc2)C(=O)N[C@@H](Cc2ccc3ccccc3c2)C(=O)N[C@@](C)(CCCCN)C(=O)N[C@@H](CCC(=O)O)C(=O)N[C@@H](CC(N)=O)C(=O)NCC(N)=O)NC(=O)[C@H](CCC(N)=O)NC(=O)[C@@H]2Cc3ccccc3CN2C(=O)[C@H]([C@@H](C)O)NC(=O)[C@H](CCC(N)=O)NC1=O; > 3000 nM
CC(=O)N[C@@H](CS)C(=O)N[C@@H](CCC(N)=O)C(=O)N[C@H](C(=O)N[C@@H](Cc1c[nH]c2ccccc12)C(=O)N[C@H](C(=O)N[C@@H](CS)C(=O)N[C@@H](Cc1ccc(O)cc1)C(=O)N[C@@H](Cc1c[nH]c2ccccc12)C(=O)N[C@@H](CCCNC(=N)N)C(=O)N[C@@H](CCC(=O)O)C(=O)N[C@@H](CC(N)=O)C(=O)NCC(=O)NCCOCC(=O)N[C@H](CCCCN)C(N)=O)C(C)C)[C@@H](C)O; < 500 nM

Consider the additional compound presented here.
Given "CC(=O)NCCCC[C@H](NC(=O)C(C)(C)NC(=O)[C@H](Cc1ccc2ccccc2c1)NC(=O)[C@H](Cc1ccc(OCCNC(C)=O)cc1)NC(=O)[C@@H](NC(=O)[C@H](CCC(N)=O)NC(=O)[C@H](Cc1c[nH]c2ccccc12)NC(=O)[C@@H](NC(=O)[C@H](CCC(N)=O)NC(=O)[C@@H](NC(C)=O)C(C)(C)S)[C@@H](C)O)C(C)(C)S)C(=O)N[C@@H](CC(N)=O)C(=O)N[C@@H](CCC(N)=O)C(N)=O" , state its recorded IC50. < 10 nM
